- assayTarget: human ACE2 (angiotensin-converting enzyme 2) (human, UniProt Q9BYF1 18-805)
- Sequence (Q9BYF1 18-805): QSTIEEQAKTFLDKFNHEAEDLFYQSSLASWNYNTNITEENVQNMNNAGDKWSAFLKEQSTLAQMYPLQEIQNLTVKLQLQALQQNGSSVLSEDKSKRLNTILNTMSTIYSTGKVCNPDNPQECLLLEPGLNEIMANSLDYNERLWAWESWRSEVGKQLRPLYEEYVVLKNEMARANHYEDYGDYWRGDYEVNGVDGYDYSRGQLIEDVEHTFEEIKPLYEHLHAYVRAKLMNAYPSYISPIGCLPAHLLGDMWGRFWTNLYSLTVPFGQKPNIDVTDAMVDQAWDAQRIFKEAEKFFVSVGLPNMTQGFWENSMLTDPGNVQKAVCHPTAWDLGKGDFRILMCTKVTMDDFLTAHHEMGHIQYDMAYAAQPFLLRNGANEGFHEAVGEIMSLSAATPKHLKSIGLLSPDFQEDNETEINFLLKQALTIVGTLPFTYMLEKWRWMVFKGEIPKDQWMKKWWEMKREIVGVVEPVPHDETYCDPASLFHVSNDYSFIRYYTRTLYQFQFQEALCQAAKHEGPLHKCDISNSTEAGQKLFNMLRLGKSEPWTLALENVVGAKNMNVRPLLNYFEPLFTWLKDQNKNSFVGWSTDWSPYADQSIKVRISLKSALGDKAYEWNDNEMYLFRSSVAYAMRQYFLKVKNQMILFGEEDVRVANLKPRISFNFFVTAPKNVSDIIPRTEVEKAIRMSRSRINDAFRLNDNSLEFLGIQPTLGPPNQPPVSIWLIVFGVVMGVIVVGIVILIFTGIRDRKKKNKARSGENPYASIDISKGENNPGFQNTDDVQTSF
- assayProtocol: cell-based or functional assay
Numbered stars: 1 amine (or outer) side, 2 acyl side, 3 side chain; on linkers, the order of the positions; unused ones are H or OH. Bridge positions count the residues as written; N and C are the ends. Square brackets hold non-standard residues; d marks the D form. Ends that are not written are not given here. * marks the point of attachment. TATA = O=C(CC[*:1])N1CN(C(=O)CC[*:2])CN(C(=O)CC[*:3])C1; hArg = N=C(N)NCCCC[C@H](N)C(=O)O; Pent4ynoyl = C#CCCC(=O)*
recordedMetric: Pseudoviral Neutralisation Assay, Geomean IC50 (nM)
One number for each entry, in nM.

// below: answered binders
- binder: "ACNAVLCSWARANSFCA (linker 2-7-16 via TATA; also: tetramer: each monomer attached at its C-terminus to central hinge moiety C (PEG23), further groups not given here) [BCY17347]"
  readoutValue: 3.75
- binder: "ACNAVLCSWARANSFCA (linker 2-7-16 via TATA; also: dimer: each monomer attached at C-terminus to central hinge A (PEG23)) [BCY17345]"
  readoutValue: 6.96
- binder: "ACNAVLCSWARANSFCA (linker 2-7-16 via TATA) [BCY15429]"
  readoutValue: 1280

Please turn your attention to the following entry.
Ask | What measured Pseudoviral Neutralisation Assay, Geomean IC50 goes with Ac-CNAVLCSWA[hArg]ANSFCK(Pent4ynoyl) (linker 1-6-15 via TATA; also: trimer: each monomer attached at C-terminus to central hinge B (PEG23)) [BCY19147] ?
Reply | 17.7
